In this section, each of the binders is paired with its reported Kd.
Target: T1, extracellular domain of human BCMA (human, UniProt Q02223 1-54)
T1 construct: amine-linked to Octet AR2G tips; also called hsBCMA; BCMA (human)
T1 sequence: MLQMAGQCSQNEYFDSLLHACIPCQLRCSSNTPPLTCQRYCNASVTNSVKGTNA
Test: Octet BLI; Fab 200 nM
measurementKind: Kd (nM)

binder="AB200-R1H26-R2Vk18 (Fab, V domains shown) VH: QVQLVQSGAEVKKPGSSVKVSCKASGGSFSNYWMHWVRQAPGQGLEWMGATYRIHSDTFYNQKFKGRVTITADKSTSTAYMELSSLRSEDTAVYYCARGAIYHGYDVLDNWGQGTLVTVSS VL: DIQMTQSPSSLSASVGDRVTITCRASQSISSYINWYQQKPGKAPKLLIYAASSLQSGVPSRFSGSGSGTDFTLTISSLQPEDFATYYCQQFRKIPWTFGQGTKLEIKR" quantityunit=nM resultnumber=3.44
binder="AB200-R1H26-R2Vk25 (Fab, V domains shown) VH: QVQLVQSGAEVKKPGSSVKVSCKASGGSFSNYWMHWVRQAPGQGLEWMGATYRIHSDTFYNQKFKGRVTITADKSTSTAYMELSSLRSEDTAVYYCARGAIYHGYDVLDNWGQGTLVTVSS VL: DIQMTQSPSSLSASVGDRVTITCRASQSISSYLNWYQQKPGKAPKLLIYATSNIQSGVPSRFSGSGSGTDFTLTISSLQPEDFATYYCQQYRRIPWTFGQGTKLEIKR" quantityunit=nM resultnumber=2.04
binder="AB200-R1H26-R2Vk44 (Fab, V domains shown) VH: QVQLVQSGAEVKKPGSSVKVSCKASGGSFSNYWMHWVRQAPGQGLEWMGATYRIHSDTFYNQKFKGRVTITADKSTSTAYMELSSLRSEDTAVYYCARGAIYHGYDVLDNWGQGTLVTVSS VL: DIQMTQSPSSLSASVGDRVTITCRASQSISSYINWYQQKPGKAPKLLIYATSNLQIGVPSRFSGSGSGTDFTLTISSLQPEDFATYYCQQYRRLPWSFGQGTKLEIKR" quantityunit=nM resultnumber=1.28
